# Procedure Details: Inhibition of human DNA polymerase epsilon using poly(dA)/oligo(dT)18 (A/T, 2/1)/dTTP DNA template-primer substrate measured at 37 degC for 60 mins
Test Readout: IC50

Entry under review: CC[C@H](C)[C@H](NC(=O)[C@H](Cc1ccc(O)cc1)NC(=O)OC(C)(C)C)C(=O)Nc1cccc2ccccc12 . Reported IC50?
> 200 µM

* * *

# Measurement Target: DNA polymerase subunit gamma-1 (Homo sapiens, UniProt P54098)
# Sequence (P54098 whole entry): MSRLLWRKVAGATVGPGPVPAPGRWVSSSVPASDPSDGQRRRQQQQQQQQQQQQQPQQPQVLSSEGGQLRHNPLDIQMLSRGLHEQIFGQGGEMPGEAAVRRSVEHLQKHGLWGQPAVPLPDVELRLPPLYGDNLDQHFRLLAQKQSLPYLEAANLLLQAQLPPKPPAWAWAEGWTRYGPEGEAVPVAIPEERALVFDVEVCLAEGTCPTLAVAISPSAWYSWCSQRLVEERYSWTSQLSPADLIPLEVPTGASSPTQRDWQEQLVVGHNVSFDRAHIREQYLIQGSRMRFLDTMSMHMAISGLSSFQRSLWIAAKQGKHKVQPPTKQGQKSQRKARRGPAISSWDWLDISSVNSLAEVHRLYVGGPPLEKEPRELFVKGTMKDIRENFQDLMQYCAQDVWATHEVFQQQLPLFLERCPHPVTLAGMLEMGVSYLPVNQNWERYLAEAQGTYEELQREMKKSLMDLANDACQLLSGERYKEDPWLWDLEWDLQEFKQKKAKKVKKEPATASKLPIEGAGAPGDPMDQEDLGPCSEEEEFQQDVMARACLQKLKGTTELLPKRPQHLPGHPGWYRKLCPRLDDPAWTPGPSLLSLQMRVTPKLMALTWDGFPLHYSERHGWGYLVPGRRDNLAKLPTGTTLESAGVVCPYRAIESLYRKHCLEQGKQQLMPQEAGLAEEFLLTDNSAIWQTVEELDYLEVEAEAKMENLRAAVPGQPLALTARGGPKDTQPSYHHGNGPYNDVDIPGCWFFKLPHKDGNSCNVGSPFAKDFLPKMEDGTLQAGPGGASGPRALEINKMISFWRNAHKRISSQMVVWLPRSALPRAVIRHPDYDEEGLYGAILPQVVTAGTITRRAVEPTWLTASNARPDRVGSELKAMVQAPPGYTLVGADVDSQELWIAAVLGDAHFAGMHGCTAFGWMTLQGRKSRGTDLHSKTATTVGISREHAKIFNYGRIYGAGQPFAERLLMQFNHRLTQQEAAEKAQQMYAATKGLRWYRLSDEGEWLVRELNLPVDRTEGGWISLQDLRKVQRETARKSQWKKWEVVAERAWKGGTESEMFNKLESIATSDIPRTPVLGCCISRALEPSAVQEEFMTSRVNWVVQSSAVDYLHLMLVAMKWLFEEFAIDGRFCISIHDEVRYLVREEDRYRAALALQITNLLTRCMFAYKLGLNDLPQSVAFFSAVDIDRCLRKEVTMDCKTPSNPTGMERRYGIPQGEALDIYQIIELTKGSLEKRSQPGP
# Procedure Details: Inhibition of human DNA polymerase gamma using poly(dA)/oligo(dT)18 (A/T, 2/1)/dTTP DNA template-primer substrate measured at 37 degC for 60 mins
Test Readout: IC50

Request body: readout IC50, system DNA polymerase subunit gamma-1 (Homo sapiens, UniProt P54098), query CC[C@H](C)[C@H](NC(=O)[C@H](Cc1ccc(O)cc1)NC(=O)OC(C)(C)C)C(=O)Nc1cccc2ccccc12 . Return the value.
> 200 µM
